- Measured Target: IDH2 R140Q (Homo sapiens, UniProt P48735, R140Q)
- Sequence (P48735 40-452 R140Q): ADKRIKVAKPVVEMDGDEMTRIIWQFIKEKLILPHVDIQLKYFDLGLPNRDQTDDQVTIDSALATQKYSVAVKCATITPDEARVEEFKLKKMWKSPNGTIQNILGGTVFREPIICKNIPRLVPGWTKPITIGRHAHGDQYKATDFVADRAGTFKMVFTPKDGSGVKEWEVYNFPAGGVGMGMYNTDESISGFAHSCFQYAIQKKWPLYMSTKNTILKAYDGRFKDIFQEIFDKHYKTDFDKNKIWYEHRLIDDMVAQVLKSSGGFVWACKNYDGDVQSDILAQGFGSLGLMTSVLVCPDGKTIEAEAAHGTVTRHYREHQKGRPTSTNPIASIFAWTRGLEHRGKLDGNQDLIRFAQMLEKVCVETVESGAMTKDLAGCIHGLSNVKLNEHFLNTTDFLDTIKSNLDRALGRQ
- Assay Procedure: IDH2 R140Q enzymatic assay (cofactor depletion, similar format)
- Format: biochemical
- Conditions Used: read-out: Enz R140Q
- Protocol: [The source words this procedure for another variant and says it was used here with some conditions changed.] Compounds are assayed for IDH2 R172K inhibitory activity through a cofactor depletion assay. […] The reaction is terminated by the addition of a second enzyme, diaphorase, and a corresponding substrate, resazurin. […]
pIC50: −log10 of the molar value.
Property: pIC50

The cases that follow already have their pIC50 on record.
{"Compound": "CC(C)Nc1nc(Nc2cc(F)cc(F)c2)nc(-c2ccc(N)nc2)n1", "Value Measured": "6.00 to 7.00"}
{"Compound": "Fc1cncc(Nc2nc(NC3[C@H]4COC[C@@H]34)nc(-c3ccccc3F)n2)c1 (stereo partly drawn)", "Value Measured": "6.00 to 7.00"}
{"Compound": "CC(C)Nc1nc(Nc2ccccc2Cl)nc(-c2ccccc2)n1", "Value Measured": "6.00 to 7.00"}
{"Compound": "CCCNc1nc(Nc2ccncc2)nc(-c2ccccc2)n1", "Value Measured": "> 7.00"}
{"Compound": "CC(C)Nc1nc(Nc2cc(Cl)cc(S(C)(=O)=O)c2)nc(-c2cccc(C(F)(F)F)n2)n1", "Value Measured": "6.00 to 7.00"}
{"Compound": "CN(C)C(=O)Nc1nc(Nc2ccccc2)nc(-c2ccccc2)n1", "Value Measured": "6.00 to 7.00"}
{"Compound": "CC(C)(C)Nc1nc(Nc2ccncc2)nc(-c2ccccc2)n1", "Value Measured": "> 7.00"}
{"Compound": "FC(F)(F)c1cc(Nc2nc(Nc3cncs3)nc(-c3cccc(C(F)(F)F)n3)n2)ccn1", "Value Measured": "6.00 to 7.00"}

Kindly consider the entry below.
In: Would you mind telling me what pIC50 value was observed for `CCOCCNc1nc(Nc2ccncc2)nc(-c2ccccc2)n1` ?
Out: 6.00 to 7.00
